biological target: T1, c-MET extracellular domain (ECD)/Fc chimera (human, UniProt P08581 25-932); experiment: AlphaScreen competition with bn-HGF for c-MET ECD/Fc, NiNTA-pure
T1 construct: Bought (R&D Systems, carrier free); also called c-MET ECD/Fc; c-MET-ECD/Fc fusion; not shown: immunoglobulin Fc domain
T1 sequence (P08581 25-932, change not shown): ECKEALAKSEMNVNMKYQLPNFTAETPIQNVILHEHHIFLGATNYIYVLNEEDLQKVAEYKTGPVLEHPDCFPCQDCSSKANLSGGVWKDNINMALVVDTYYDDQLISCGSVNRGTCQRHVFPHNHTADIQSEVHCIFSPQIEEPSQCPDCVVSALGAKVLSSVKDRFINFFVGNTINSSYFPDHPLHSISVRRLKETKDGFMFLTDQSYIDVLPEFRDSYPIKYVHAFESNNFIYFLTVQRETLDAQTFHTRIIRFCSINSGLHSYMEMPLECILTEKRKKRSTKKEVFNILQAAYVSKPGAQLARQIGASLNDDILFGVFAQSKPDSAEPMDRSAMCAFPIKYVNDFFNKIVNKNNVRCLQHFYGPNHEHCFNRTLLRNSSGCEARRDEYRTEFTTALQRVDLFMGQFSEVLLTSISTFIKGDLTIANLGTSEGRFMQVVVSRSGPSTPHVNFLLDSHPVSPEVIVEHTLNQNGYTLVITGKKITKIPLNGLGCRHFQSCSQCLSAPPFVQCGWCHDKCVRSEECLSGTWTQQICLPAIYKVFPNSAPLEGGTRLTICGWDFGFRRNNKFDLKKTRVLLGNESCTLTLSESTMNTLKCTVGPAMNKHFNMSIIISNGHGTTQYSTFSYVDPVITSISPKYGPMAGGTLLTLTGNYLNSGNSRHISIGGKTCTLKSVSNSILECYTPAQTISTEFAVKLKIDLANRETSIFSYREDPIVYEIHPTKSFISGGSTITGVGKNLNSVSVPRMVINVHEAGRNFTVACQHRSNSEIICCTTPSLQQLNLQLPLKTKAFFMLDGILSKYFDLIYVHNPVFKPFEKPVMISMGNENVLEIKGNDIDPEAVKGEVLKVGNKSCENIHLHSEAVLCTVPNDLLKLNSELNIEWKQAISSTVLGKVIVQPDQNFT
Outcome Measure: pIC50
Expect pIC50 as a plain number equal to -log10 of the molar concentration.

Example results:
Binder	pIC50
CEADEFRCRSTGRCISVDWRCDGVSDCEDSSDEESCESTAPTSLQ (designed binder, Assayed protein also bears HA and 6His tags; also called C381) [Anti-c-MET Avimer monomer M20]	7.66
CVSNEFTCRSTKRCVPQEWVCDGVNDCEDGSDETGCPKHTSLQ (designed binder, Assayed protein also bears HA and 6His tags; also called C399) [Anti-c-MET Avimer monomer M38]	7.30
CLADEFQCHSTKRCVPRHWLCDGVNDCEDGSDEKSCSQDPEFHKVSLQ (designed binder, Assayed protein also bears HA and 6His tags; also called C239) [Anti-c-MET Avimer monomer M13]	6.61

Returns the measured pIC50 for the input binder. Input: CVSNEFTCRSTKRCVPQEWVCDGVNDCEDGSDETGCPKHTSLQ (designed binder, Assayed protein also bears HA and 6His tags; also called C382) [Anti-c-MET Avimer monomer M21]
7.08
